Test system: NCI-H322M lung
Experiment: NCI-60 one-dose screen, 48 h (100 = growth as untreated, 0 = no growth, -100 = all killed)
Conditions: 10 µM unless noted
Method: Growth inhibition of the NCI-H322M human Non-Small Cell Lung tumor cell line is measured as a screen for anti-cancer activity. Cells are grown in 96 well plates and exposed to the test compound for 48 hours. Compounds are tested at a single concentration, which is 10^-5 M for most compounds. The reported endpoint is percent growth (GI% or GIPRCNT), where numbers from 0 - 100% represent growth inhibition, and numbers from -100% - 0 represent cell death. […]
Compounds without any hit were thinned out: in the full panel of roughly 83,000, 20% have a hit.
# label = Yes if growth >= 10% else No

API: above_or_equal(metric=growth, cutoff=10%) for item CC1(C)N=C(N)N=C(N)N1c1ccc(CCCCc2ccc(S(=O)(=O)F)cc2)cc1
Yes

API: above_or_equal(metric=growth, cutoff=10%) for item CC1=C(SCCC(=O)OCC(=O)NCCC[Te]c2ccccc2)C(=O)c2ccccc2C1=O
No

API: above_or_equal(metric=growth, cutoff=10%) for item ClCCN(CCCl)c1ccc(/C=C\c2ccnc3ccccc23)cc1
Yes

API: above_or_equal(metric=growth, cutoff=10%) for item [O]=[Sn]([CH]1CCCCC1)[CH]1CCCCC1
No

API: above_or_equal(metric=growth, cutoff=10%) for item CC(C)N=C(NC(C)C)N1CC1
Yes

API: above_or_equal(metric=growth, cutoff=10%) for item N#C[Se]CCCNS(=O)(=O)C1CC2C=CC1C2 (centres undefined)
No

API: above_or_equal(metric=growth, cutoff=10%) for item COP(=S)(OC)Oc1ccc(SC)c(C)c1
Yes

API: above_or_equal(metric=growth, cutoff=10%) for item C/C(=C\c1cc(C(F)(F)F)n(-c2ccc(N)cc2)n1)[C@@H]1C[C@@H]2O[C@]2(C)CCC[C@H](C)[C@H](O)[C@@H](C)C(=O)C(C)(C)[C@@H](O)CC(=O)O1
Yes

---

system: BT-549 breast; assay: NCI-60 one-dose screen, 48 h; conditions: 10 µM
This is part of a sample that, as a whole, favours compounds with a hit. Of some 83,000 tested, about 20% had one in any assay. Active and inactive are the calls of the source. The calls were made as follows: active = growth percent below 10; inactive = the rest.
Response enum: active, inactive

I'd appreciate the recorded outcome for [O]=[Sn]([CH]1CCCCC1)[CH]1CCCCC1 from this test.
active

I'd appreciate the recorded outcome for CC(C)OC(=S)[S-].[Au+].c1ccc([PH+](c2ccccc2)c2ccccc2)cc1 from this test.
active

I'd appreciate the recorded outcome for O=C(O)CC(Br)C(=O)CBr (stereo not drawn) from this test.
inactive

I'd appreciate the recorded outcome for O=C(NCc1ccc([N+](=O)[O-])cc1)Nc1ccc(S(=O)(=O)F)cc1 from this test.
inactive

I'd appreciate the recorded outcome for N#C[Se]CCCNS(=O)(=O)C1CC2C=CC1C2 (stereo not drawn) from this test.
active

I'd appreciate the recorded outcome for CC1(C)N=C(N)N=C(N)N1c1ccc(OCCCCNC(=O)c2ccc(S(=O)(=O)F)cc2)c(Cl)c1 from this test.
inactive

I'd appreciate the recorded outcome for CCC1([N+](=O)[O-])COP(=O)(NCc2cccnc2)OC1 (stereo not drawn) from this test.
inactive

I'd appreciate the recorded outcome for c1cnc2c(c1)ccc1ncccc12 from this test.
inactive

I'd appreciate the recorded outcome for CC(=O)Nc1ccc(Cc2ccc(NC(C)=O)cc2)cc1 from this test.
inactive

I'd appreciate the recorded outcome for [N-]=[N+]=NC(C(=O)O)c1ccccc1 (stereo not drawn) from this test.
inactive

I'd appreciate the recorded outcome for S=P(N1CCCCCC1)(N1CC1)N1CC1 from this test.
inactive

I'd appreciate the recorded outcome for O=S(=O)(c1ccc(Cl)cc1)C(Cl)(Cl)Cl from this test.
inactive

I'd appreciate the recorded outcome for CC1(C)CC2(CC(C)(C)c3cc(O)c(O)cc32)c2cc(O)c(O)cc21 from this test.
inactive

I'd appreciate the recorded outcome for O=[As]c1ccc(C(=O)c2ccc(Oc3ccccc3)cc2)cc1 (stereo not drawn) from this test.
active

I'd appreciate the recorded outcome for O=C(CCF)c1ccc(O)cc1 from this test.
inactive

I'd appreciate the recorded outcome for CC(=O)[O][Hg][CH2]C1(C)COC(C)([CH2][Hg][O]C(C)=O)CO1 (stereo not drawn) from this test.
active

I'd appreciate the recorded outcome for CO[C@@H](c1ccccc1Cl)[C@H](C)OC(N)=O from this test.
inactive

I'd appreciate the recorded outcome for CCCCCN(CCCCC)CC(O)c1ccc(C)c(Cl)c1 (stereo not drawn) from this test.
inactive

I'd appreciate the recorded outcome for Cc1cc(C)nc(C)c1.[Cl][Hg][Cl] from this test.
inactive

I'd appreciate the recorded outcome for CC(C)C1c2ccc(O)cc2Oc2nc(N)c(C#N)c(N)c21 (stereo not drawn) from this test.
inactive

I'd appreciate the recorded outcome for CCOc1ccc(C(O)CN(C)Cc2ccccc2)cc1Cl (stereo not drawn) from this test.
inactive

I'd appreciate the recorded outcome for COc1cc2c(cc1OC)CN(C)C(C)C2 (stereo not drawn) from this test.
inactive

I'd appreciate the recorded outcome for C=CCc1ccc(OC(=O)Cc2ccccc2)c(OC)c1 from this test.
inactive

I'd appreciate the recorded outcome for NC(=O)C(Cl)Cl from this test.
inactive

I'd appreciate the recorded outcome for CC(=O)Oc1ccc(Cl)cc1 from this test.
inactive

I'd appreciate the recorded outcome for COC(C)(C)CCC[C@H](C)C/C=C/C(C)=C/C(=O)OC(C)C from this test.
inactive

I'd appreciate the recorded outcome for COc1cc(C2CC(=O)Nc3nc(N)[se]c32)cc(OC)c1OC (stereo not drawn) from this test.
inactive

I'd appreciate the recorded outcome for ClCCN(CCCl)c1ccc(/C=C\c2ccnc3ccccc23)cc1 from this test.
inactive

I'd appreciate the recorded outcome for C[C@]12C[C@H](O)[C@H]3[C@@H](CCC4=CC(=O)CC[C@@]43C)[C@@H]1CC[C@@H]2O from this test.
inactive

I'd appreciate the recorded outcome for CC1COC(=O)C1 (stereo not drawn) from this test.
inactive

I'd appreciate the recorded outcome for CC1(C)N=C(N)N=C(N)N1c1ccc(CCCCc2ccc(S(=O)(=O)F)cc2)c(Cl)c1 from this test.
inactive

I'd appreciate the recorded outcome for O=[N+]([O-])c1ccccc1N1CCNCC1 from this test.
inactive

I'd appreciate the recorded outcome for CCC(C)/C=C(C)/C=C/C(=O)c1c(O)c(-c2ccc(O)cc2)c[nH]c1=O (stereo not drawn) from this test.
inactive

I'd appreciate the recorded outcome for C[As](=O)(O)c1ccc(C(=O)O)cc1 from this test.
inactive

I'd appreciate the recorded outcome for O=C(C(=O)N1CCCC1)c1cn(CCCCCn2cc(C(=O)C(=O)N3CCCC3)c3ccccc32)c2ccccc12 from this test.
inactive

I'd appreciate the recorded outcome for Nc1nc(N)c(-c2ccc(Cl)c(Cl)c2)c(/C=C/c2ccc(S(=O)(=O)F)cc2)n1 from this test.
inactive

I'd appreciate the recorded outcome for COc1cc(C2(C#N)CCN(C)CC2)cc(OC)c1OC from this test.
inactive

I'd appreciate the recorded outcome for CO[C@@H]([CH2][Hg][S]C#N)[C@@H]([CH2][Hg][S]C#N)OC from this test.
inactive

I'd appreciate the recorded outcome for Nc1ncnc2c1c(C(=O)NO)cn2C1OC(CO)C(O)C1O (stereo not drawn) from this test.
active

I'd appreciate the recorded outcome for Cc1cccc(N=C2c3cc([N+](=O)[O-])ccc3-c3c2cc([N+](=O)[O-])cc3[N+](=O)[O-])c1 from this test.
inactive

I'd appreciate the recorded outcome for Nc1ccc([N+](=O)[O-])c2c1Oc1ccccc1O2 from this test.
inactive

I'd appreciate the recorded outcome for Nc1ccc(N)c2c1Oc1ccccc1O2 from this test.
inactive

I'd appreciate the recorded outcome for Cn1cnnc1[S-].[Au+].c1ccc([PH+](c2ccccc2)c2ccccc2)cc1 from this test.
inactive

I'd appreciate the recorded outcome for CCN1CC2(CN(CC)C1=S)C(=O)NC(=O)NC2=O from this test.
inactive

I'd appreciate the recorded outcome for CCOC(=O)Nc1cc(Cl)c([N+](=O)[O-])c(NC(=O)OCC)n1 from this test.
inactive

I'd appreciate the recorded outcome for Nc1c(Br)cc2c3c(cccc13)-c1ccccc1-2 from this test.
inactive

I'd appreciate the recorded outcome for S=P(NC1CCCCC1)(N1CC1)N1CC1 from this test.
inactive

I'd appreciate the recorded outcome for CC1(CF)NC(=O)NC1=O (stereo not drawn) from this test.
inactive

---

system: HL-60(TB) leukemia; assay: NCI-60 one-dose screen, 48 h; settings: 10 µM unless noted
Compounds without any hit were thinned out: in the full panel of roughly 83,000, 20% have a hit. Active and inactive are the calls of the source. The calls were made as follows: active = growth percent below 10; inactive = the rest.
Response enum: Yes = active, No = inactive

I'd appreciate the recorded outcome for COc1cc(-c2nn(-c3cccc(NC(=O)NCCNC(=O)c4cccc(C(F)(F)F)c4)c3)cc2-c2ccncc2)ccc1Cl from this test.
No

I'd appreciate the recorded outcome for O=c1oc2ccc(F)cc2c(=O)n1-c1ccc(I)cc1F from this test.
Yes

I'd appreciate the recorded outcome for CCN(CC)CCCCCCCNc1cc(OC)cc2c(C)ccnc12 from this test.
No

I'd appreciate the recorded outcome for COc1cc(C(=O)Nc2cc(O)c(CC=C(C)C)c(O)c2)cc2c1O[C@]1(C)CC[C@@H](O)C(C)(C)[C@H]1C2 from this test.
Yes

I'd appreciate the recorded outcome for CCOc1ccc(Cc2nccc3cc(OCC)c(OCC)cc23)cc1OCC from this test.
No

I'd appreciate the recorded outcome for O=C1/C(=C/c2ccc(Cl)cc2)CN(Cc2cn(CCNc3ccnc4cc(Cl)ccc34)nn2)C/C1=C\c1ccc(Cl)cc1 from this test.
Yes

I'd appreciate the recorded outcome for Cc1cn(-c2cccc(NC(=O)c3ccc(C)c(Nc4nccc(-c5cccnc5)n4)c3)c2)cn1 from this test.
No

I'd appreciate the recorded outcome for C=C(CNCCc1ccc(O)cc1)[C@@H]1CC[C@]2(CO)CC[C@]3(C)[C@H](CC[C@@H]4[C@@]5(C)CCC(=O)C(C)(C)[C@@H]5CC[C@]43C)[C@@H]12 from this test.
Yes
